- test_summary: Metabolic stability in dog liver microsomes assessed as compound remaining at 5 uM in presence of 2.5 uM ritonavir by RP-HPLC
- Format: ADME, Canis lupus familiaris, Microsome
- test_settings: with ritonavir 2.5 uM, read-out: Stability
readout_type: remaining at 5 µM

COc1cccc(C[C@H](NC(=O)c2cccc(N)c2Cl)[C@H](O)C(=O)N2CSC(C)(C)[C@H]2C(=O)NCc2c(C)cccc2C)c1
> 95%

# batch: return remaining at 5 µM for each of the 2 compounds below
1. Cc1cccc(C)c1OCC(=O)N[C@@H](Cc1ccccc1)[C@@H](O)C[C@H](Cc1ccccc1)NC(=O)[C@H](C(C)C)N1CCCNC1=O [LOPINAVIR]
2. Cc1ccccc1CNC(=O)[C@H]1N(C(=O)[C@@H](O)[C@H](Cc2ccccc2)NC(=O)c2cccc(O)c2C)CSC1(C)C

Marked response:
1: > 95%; 2: 93%
